This collection of values is drawn from patent US10752587B2.

- Target or system: glutathione-S-transferase (GST) tagged LXRalpha LBD (ligand binding domain) (Homo sapiens)
- Construct: purchased Invitrogen pv4655
- Sequence (Q13133 209-447 limits assumed): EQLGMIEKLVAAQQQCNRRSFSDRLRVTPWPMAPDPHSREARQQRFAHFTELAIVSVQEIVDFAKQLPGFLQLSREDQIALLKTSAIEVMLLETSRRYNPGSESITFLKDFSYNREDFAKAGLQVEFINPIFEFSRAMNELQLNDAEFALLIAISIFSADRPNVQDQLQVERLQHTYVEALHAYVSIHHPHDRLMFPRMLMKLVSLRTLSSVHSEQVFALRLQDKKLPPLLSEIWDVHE
- Procedure summary: LanthaScreen TR-FRET Liver X Receptor Coactivator Assay, co-activator recruitment to LXRalpha LBD
- Assay type: biochemical
- Condition label: potency (Inflection Point, IP), co-activator recruitment to LXRalpha LBD, in relation to T0901317
- Description: […]
Measurement type: LXR alpha IP (nM)

- COc1cccc([C@@](O)(C(=O)N2CCC(CC3CN(c4ccc(C(=O)N(C)C)c(OC)n4)C3)CC2)C(F)(F)F)c1: NO IP
- CN(C)C(=O)c1ccc(N2CCC(CC3CCN(C(=O)[C@](O)(c4cc(Cl)cc(Cl)c4)C(F)(F)F)CC3)CC2)cc1Cl: NO IP
- COc1cccc([C@@](O)(C(=O)N2CCC(CC3CCN(c4ccc(C(=O)N(C)C)c(OC)n4)CC3)CC2)C(F)(F)F)c1: NO IP
